Molecular target: human Edg-1(S1P1) (Homo sapiens)
Construct: expressed in transfected cells; host or cells: HEK-293
Sequence (P21453 whole entry): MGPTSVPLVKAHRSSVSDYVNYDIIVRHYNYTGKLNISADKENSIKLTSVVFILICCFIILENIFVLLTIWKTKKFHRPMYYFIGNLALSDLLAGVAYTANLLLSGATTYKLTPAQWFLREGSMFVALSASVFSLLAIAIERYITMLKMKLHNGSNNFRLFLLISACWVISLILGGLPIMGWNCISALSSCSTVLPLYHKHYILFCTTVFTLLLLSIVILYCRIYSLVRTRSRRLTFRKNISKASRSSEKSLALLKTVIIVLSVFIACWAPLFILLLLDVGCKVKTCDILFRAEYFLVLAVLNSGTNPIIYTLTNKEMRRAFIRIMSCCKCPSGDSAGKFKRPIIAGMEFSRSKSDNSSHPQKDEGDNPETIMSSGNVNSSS
Experiment: Cell system binding test: inhibition of [3H]-S1P binding to Edg-1(S1P1) gene transferred HEK-293 cells
Conditions: 10 μM compound, [3H]-S1P 10 nM, read-out: Cell system binding test % inhibition (10 μM)
Value kind: inhibition at 10 µM (%)
One number for each entry, in %.

Some compounds with known inhibition at 10 µM results, for comparison:
CCn1c(SCC2(c3ccc(Cl)cc3)CC2)nnc1[C@@H](C)NS(=O)(=O)c1ccc(Cl)cc1 : 87.8
CCn1c(OC)nnc1[C@H](C)NS(=O)(=O)c1cccc(Cl)c1 : 108
CCn1c(SCCCC(C)=O)nnc1[C@@H](C)NS(=O)(=O)c1ccc(Cl)cc1 : 82.7
CCOc1nnc([C@@H](C)NS(=O)(=O)c2ccc(Br)s2)n1CC : 92.8
CCOc1nnc([C@@H](C)NS(=O)(=O)c2ccc(Cl)cc2)n1CC : 89.3
CCn1c(OCCCCCO)nnc1[C@@H](C)NS(=O)(=O)c1ccc(Cl)cc1 : 105
CCn1c(SC)nnc1[C@@H](C)NS(=O)(=O)c1ccc(Cl)cc1 : 89.8
CCOc1nnc([C@@H](C)NS(=O)(=O)c2cccc(Br)c2)n1CC : 88.5

We now examine a further compound.
Exam item: # input compound: CCn1c(OC)nnc1[C@@H](C)NS(=O)(=O)c1ccc(F)cc1 ; wanted: its inhibition at 10 µM
Marked response: 95.5

Values compiled from patent US8022225B2.
